Data origin: patent US20090042805A1

Quick list: IC50 (nM), inhibition of Ac-VDVAD-AMC cleavage by human recombinant caspase-2 per entry.
# experimental-target: T1, Human recombinant caspase-2 (human, UniProt P42575 170-452, limits assumed)
# T1 sequence (looked up): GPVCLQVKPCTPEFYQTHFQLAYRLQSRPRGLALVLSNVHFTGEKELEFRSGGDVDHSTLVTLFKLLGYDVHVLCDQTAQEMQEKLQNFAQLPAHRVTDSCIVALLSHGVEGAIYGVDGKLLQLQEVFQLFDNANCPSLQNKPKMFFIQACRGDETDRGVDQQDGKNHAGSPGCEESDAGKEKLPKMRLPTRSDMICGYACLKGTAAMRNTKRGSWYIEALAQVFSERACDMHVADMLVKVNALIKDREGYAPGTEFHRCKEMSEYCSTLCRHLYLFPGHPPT
# procedure-text: cell-based or functional assay
endpoint-name: IC50 (nM), inhibition of Ac-VDVAD-AMC cleavage by human recombinant caspase-2

binder: Ac-VDEAD-aldehyde (SMILES CC(=O)N[C@H](C(=O)N[C@@H](CC(=O)O)C(=O)N[C@@H](CCC(=O)O)C(=O)N[C@@H](C)C(=O)N[C@H](C=O)CC(=O)O)C(C)C) [Ac-VDEAD-cho]
reading: 85 nM

binder: Ac-VDESD-aldehyde (SMILES CC(=O)N[C@H](C(=O)N[C@@H](CC(=O)O)C(=O)N[C@@H](CCC(=O)O)C(=O)N[C@@H](CO)C(=O)N[C@H](C=O)CC(=O)O)C(C)C) [Ac-VDESD-cho]
reading: 175 nM

binder: Ac-LDEAD-aldehyde (SMILES CC(=O)N[C@@H](CC(C)C)C(=O)N[C@@H](CC(=O)O)C(=O)N[C@@H](CCC(=O)O)C(=O)N[C@@H](C)C(=O)N[C@H](C=O)CC(=O)O) [Ac-LDEAD-cho]
reading: 85 nM

binder: Ac-VDEGD-aldehyde [VDEGD pentapeptidic-based inhibitor]
reading: 260 nM

binder: Ac-VDVAD-aldehyde [Ac-VDVAD-cho]
reading: 75 nM
